Just for reference, patent US9290478B2 is where these values come from.

- experimental.system: FGFR3 (h) (Homo sapiens, UniProt P22607)
- Sequence (P22607 23-806): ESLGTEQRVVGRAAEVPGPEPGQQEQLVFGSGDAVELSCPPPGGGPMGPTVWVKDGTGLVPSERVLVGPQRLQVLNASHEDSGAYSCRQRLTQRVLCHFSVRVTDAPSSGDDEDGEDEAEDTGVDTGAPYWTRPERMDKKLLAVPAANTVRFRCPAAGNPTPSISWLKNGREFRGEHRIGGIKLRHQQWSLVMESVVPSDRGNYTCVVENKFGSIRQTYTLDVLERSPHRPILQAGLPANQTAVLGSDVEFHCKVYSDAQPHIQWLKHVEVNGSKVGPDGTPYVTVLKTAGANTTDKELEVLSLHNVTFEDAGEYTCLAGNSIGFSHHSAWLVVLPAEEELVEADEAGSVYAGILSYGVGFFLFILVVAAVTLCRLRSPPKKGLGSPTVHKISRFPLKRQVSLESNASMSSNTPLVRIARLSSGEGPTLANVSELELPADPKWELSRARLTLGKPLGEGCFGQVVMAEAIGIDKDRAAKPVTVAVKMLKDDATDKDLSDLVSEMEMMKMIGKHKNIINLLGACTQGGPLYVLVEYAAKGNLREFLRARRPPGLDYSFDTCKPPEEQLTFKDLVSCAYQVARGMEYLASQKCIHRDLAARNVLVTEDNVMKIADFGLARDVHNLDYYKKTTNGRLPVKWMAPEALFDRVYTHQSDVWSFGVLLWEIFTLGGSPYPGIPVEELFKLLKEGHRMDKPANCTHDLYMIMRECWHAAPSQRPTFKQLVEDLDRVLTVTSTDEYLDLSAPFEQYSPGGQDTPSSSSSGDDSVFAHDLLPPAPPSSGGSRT
- assay: FGFR3 (enzymatic assay), TR-FRET
- Type: biochemical
- condition.notes: 25 μM ATP; read-out: FGFR3 pIC50 (converted)
reported.metric: IC50 (µM)

Example cases with answers are listed next.
| molecule | IC50 / µM |
| --- | --- |
| COc1cc(OC)cc(/C(=C\C#N)c2ccc3ncc(-c4cnn(C)c4)nc3c2)c1 | 0.0363 |
| COc1cc(OC)cc(/C(=C\CN(C)C)c2ccc3ncc(-c4cnn(C)c4)nc3c2)c1 | 0.00912 |

(P) CNCC(O)(c1cc(OC)cc(OC)c1)c1ccc2ncc(-c3cnn(C)c3)nc2c1.Cl (single isomer, unassigned) [Compound 37]
(Q) COc1cc(OC)cc(/C(=C\CNC(C)C)c2ccc3ncc(-c4cnn(C)c4)nc3c2)c1
Query: Looking at recorded values for IC50, does P or Q come in lower? Give the label of your selection.
Response: Q
(Q: 0.00871 µM, P: 0.537 µM)

----------
- experimental.system: FGFR4 (h) (Homo sapiens, UniProt P22455)
- Sequence (P22455 22-802): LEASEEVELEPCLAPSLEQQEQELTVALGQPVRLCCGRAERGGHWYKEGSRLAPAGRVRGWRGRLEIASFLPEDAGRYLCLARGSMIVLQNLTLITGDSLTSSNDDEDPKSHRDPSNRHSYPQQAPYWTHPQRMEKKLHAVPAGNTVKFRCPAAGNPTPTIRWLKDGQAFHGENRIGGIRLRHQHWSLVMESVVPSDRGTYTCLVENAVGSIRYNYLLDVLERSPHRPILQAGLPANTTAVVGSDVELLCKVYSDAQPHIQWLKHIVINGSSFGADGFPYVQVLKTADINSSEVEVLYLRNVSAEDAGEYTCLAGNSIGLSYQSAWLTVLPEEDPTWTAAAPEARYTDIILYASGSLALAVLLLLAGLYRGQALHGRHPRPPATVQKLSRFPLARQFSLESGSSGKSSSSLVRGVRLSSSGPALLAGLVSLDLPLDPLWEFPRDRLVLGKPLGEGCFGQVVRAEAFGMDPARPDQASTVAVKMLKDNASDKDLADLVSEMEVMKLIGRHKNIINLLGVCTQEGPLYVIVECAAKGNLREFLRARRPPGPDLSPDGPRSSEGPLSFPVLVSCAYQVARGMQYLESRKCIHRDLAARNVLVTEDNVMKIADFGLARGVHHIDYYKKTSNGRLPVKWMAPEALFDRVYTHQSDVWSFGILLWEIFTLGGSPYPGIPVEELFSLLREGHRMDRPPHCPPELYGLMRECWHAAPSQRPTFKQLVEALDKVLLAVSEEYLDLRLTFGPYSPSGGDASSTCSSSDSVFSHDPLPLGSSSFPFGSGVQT
- assay: FGFR4 (enzymatic assay), TR-FRET
- Format: biochemical
- condition.notes: 5 μM ATP; read-out: FGFR4 pIC50 (converted)
reported.metric: IC50 (nM)

(1) COc1cc(OC)cc(C(CCNC(C)C)c2ccc3ncc(-c4cnn(C)c4)nc3c2)c1.Cl (stereo not shown) [Compound 29]
(2) COc1cc(OC)cc(C2(c3ccc4ncc(-c5cnn(C)c5)nc4c3)CC2)c1 [Compound 30]
Query: // compare measured IC50 between 1 and 2 ; output the lower one State the label of the item chosen.
Response: 1
(1: 275 nM, 2: 479 nM)

----------
- experimental.system: FGFR4 (h) (Homo sapiens, UniProt P22455)
- assay: FGFR4 (enzymatic assay), TR-FRET
- Format: biochemical
- condition.notes: 5 μM ATP; read-out: FGFR4 pIC50 (converted)
- Procedure: In a final reaction volume of 30 μL, FGFR4 (h) (60 ng/ml) was incubated with 50 mM HEPES pH 7.5, 6 mM MnCl2, 1 mM DTT, 0.1 mM Na3VO4, 0.01% Triton-X-100, 500 nM Btn-Flt3 and 5 μM ATP in the presence of compound (1% DMSO final). […] Time-Resolved Fluorescence Resonance Energy Transfer (TR-FRET) signal (ex340 nm. Em 620 nm, em 655 nm) was measured afterwards and results are expressed in RFU (Relative Fluorescence Units). […]
reported.metric: IC50 (nM)

| molecule | recorded.value |
| --- | --- |
| COc1cc(OC)cc(/C(=C\C#N)c2ccc3ncc(-c4cnn(C)c4)nc3c2)c1 [Compound 4] | 363 |

(A) COc1cc(OC)cc(C(CCN)c2ccc3ncc(-c4cnn(C)c4)nc3c2)c1.Cl (stereo not shown) [Compound 20]
(B) Cn1cc(-c2cnc3ccc(C(O)c4ccccc4)cc3n2)cn1 (stereo not shown) [Compound 28]
(C) COc1cc(OC)cc(C(CCNC(C)C)c2ccc3ncc(-c4cnn(C)c4)nc3c2)c1 (single isomer, unassigned) [Compound 19a]
Query: Order each entry by recorded IC50, climbing from the minimum. Record the ranking as a list of labels in the requested order.
Response: C, A, B
(C: 145 nM, A: 447 nM, B: 8510 nM)

----------
- experimental.system: Ba/F3-FGFR3-transfected cells (Homo sapiens, UniProt P22607)
- Construct: BAF3-FGFR3 (MIN IL3) pIC50; other: minus IL3
- Sequence (P22607 whole entry, change not shown): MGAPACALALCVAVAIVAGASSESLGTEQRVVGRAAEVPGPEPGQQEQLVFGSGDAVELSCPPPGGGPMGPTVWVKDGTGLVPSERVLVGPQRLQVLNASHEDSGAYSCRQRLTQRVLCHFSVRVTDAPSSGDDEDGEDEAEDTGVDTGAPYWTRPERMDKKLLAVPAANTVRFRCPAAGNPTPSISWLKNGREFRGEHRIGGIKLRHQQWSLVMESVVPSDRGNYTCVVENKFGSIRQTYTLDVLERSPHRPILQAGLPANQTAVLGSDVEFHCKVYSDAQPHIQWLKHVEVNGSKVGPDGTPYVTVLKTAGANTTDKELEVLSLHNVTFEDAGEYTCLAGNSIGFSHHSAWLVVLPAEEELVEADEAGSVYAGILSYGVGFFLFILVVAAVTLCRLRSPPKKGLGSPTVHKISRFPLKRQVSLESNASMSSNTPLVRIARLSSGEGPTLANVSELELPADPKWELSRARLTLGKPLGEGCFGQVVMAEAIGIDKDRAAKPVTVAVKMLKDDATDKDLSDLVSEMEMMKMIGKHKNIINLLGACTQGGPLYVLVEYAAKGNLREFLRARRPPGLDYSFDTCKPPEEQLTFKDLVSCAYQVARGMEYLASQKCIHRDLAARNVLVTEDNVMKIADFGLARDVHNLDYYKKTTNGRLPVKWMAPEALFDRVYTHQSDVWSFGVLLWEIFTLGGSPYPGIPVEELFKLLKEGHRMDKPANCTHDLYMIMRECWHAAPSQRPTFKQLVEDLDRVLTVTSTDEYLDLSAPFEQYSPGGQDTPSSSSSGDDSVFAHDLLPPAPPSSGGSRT
- assay: Ba/F3-FGFR3 (minus IL3 or plus IL3) cellular proliferation assay
- Format: cell-based
- condition.notes: minus IL3
This section presents molecules with their documented BAF3-FGFR3 (MIN IL3) pIC50 values.

Please review the entries below; each comes with its answer.
| molecule | BAF3-FGFR3 (MIN IL3) pIC50 |
| --- | --- |
| CNCC(O)(c1cc(OC)cc(OC)c1)c1ccc2ncc(-c3cnn(C)c3)nc2c1.Cl (single isomer, unassigned) [Compound 37] | <5 |
| COc1cc(OC)cc(C(CCNCC(F)(F)F)c2ccc3ncc(-c4cnn(C)c4)nc3c2)c1.Cl (centres unmarked) | ~5.11 |
| COc1cc(OC)cc(C(CCNC(C)C)c2ccc3ncc(-c4cnn(C)c4)nc3c2)c1 (single isomer, unassigned) [Compound 32a] | ~5.03 |
| CNCC(O)(c1cc(OC)cc(OC)c1)c1ccc2ncc(-c3cnn(C)c3)nc2c1.Cl (single isomer, unassigned) [Compound 38] | <5 |
| COc1cc(OC)cc(C(CCCN)c2ccc3ncc(-c4cnn(C)c4)nc3c2)c1.Cl (centres unmarked) | 5.27 |

Query: Value wanted: BAF3-FGFR3 (MIN IL3) pIC50 (Ba/F3-FGFR3-transfected cells (Homo sapiens, UniProt P22607)) of entry COc1cc(OC)cc(C(NCCNC(C)C)c2ccc3ncc(-c4cnn(C)c4)nc3c2)c1.Cl (single isomer, unassigned) [Compound 39]
Response: <5

Query: Form field - read-out: BAF3-FGFR3 (MIN IL3) pIC50; system: Ba/F3-FGFR3-transfected cells (Homo sapiens, UniProt P22607); submitted item: COc1cc(OC)cc(/C(=C\CNCC(F)(F)F)c2ccc3ncc(-c4cnn(C)c4)nc3c2)c1
Response: 6.39

Query: // map COc1cc(OC)cc(C(NCCNC(C)C)c2ccc3ncc(-c4cnn(C)c4)nc3c2)c1.Cl (single isomer, unassigned) [Compound 24] to recorded BAF3-FGFR3 (MIN IL3) pIC50 (system: Ba/F3-FGFR3-transfected cells (Homo sapiens, UniProt P22607))
Response: 5.29

----------
- experimental.system: FGFR2 (h) (Homo sapiens)
- Sequence (P21802 22-821): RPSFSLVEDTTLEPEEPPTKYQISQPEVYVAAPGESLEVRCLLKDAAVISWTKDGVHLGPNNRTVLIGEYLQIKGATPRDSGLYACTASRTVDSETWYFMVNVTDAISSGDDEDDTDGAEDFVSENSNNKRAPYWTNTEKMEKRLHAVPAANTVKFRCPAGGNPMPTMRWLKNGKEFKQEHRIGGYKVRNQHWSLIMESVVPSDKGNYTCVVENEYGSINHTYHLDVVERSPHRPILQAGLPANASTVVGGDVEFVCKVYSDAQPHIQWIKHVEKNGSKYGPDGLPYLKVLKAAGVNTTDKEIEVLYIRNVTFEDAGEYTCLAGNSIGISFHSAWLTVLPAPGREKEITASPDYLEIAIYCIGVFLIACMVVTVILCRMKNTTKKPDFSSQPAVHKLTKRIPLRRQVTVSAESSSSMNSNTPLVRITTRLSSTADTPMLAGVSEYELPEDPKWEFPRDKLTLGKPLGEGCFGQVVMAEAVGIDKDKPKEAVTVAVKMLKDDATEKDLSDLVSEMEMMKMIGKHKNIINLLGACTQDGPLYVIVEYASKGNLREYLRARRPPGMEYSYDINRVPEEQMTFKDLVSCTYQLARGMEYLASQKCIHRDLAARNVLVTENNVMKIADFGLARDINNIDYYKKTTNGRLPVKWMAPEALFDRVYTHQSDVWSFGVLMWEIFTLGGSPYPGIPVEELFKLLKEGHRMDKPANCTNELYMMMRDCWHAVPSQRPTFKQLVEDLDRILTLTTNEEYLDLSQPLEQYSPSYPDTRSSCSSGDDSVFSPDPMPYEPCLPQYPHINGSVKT
- assay: FGFR2 (enzymatic assay), TR-FRET
- Format: biochemical
- condition.notes: 0.4 μM ATP; read-out: FGFR2 pIC50 (converted)
- Protocol: In a final reaction volume of 30 μL, FGFR2 (h) (150 ng/ml) was incubated with 50 mM HEPES pH 7.5, 6 mM MnCl2, 1 mM DTT, 0.1 mM Na3VO4, 0.01% Triton-X-100, 500 nM Btn-Flt3 and 0.4 μM ATP in the presence of compound (1% DMSO final). […] Time-Resolved Fluorescence Resonance Energy Transfer (TR-FRET) signal (ex340 nm. Em 620 nm, em 655 nm) was measured afterwards and results are expressed in (Relative Fluorescence Units). […]
reported.metric: IC50

Consider the worked cases shown below.
| molecule | IC50 |
| --- | --- |
| CNCC(O)(c1cc(OC)cc(OC)c1)c1ccc2ncc(-c3cnn(C)c3)nc2c1.Cl (single isomer, unassigned) [Compound 38] | > 1000 nM |
| CN(C)CCC(c1ccccc1)c1ccc2ncc(-c3cnn(C)c3)nc2c1 (stereo not shown) | > 1000 nM |
| COc1cc(OC)cc(C(CC(=O)NC(C)C)c2ccc3ncc(-c4cnn(C)c4)nc3c2)c1 (stereo not shown) | > 1000 nM |

# next molecule below
Query: // IC50 lookup, key: COc1cc(OC)cc(C(CC(C)(O)CNC(C)C)c2ccc3ncc(-c4cnn(C)c4)nc3c2)c1.Cl (stereo not shown)
Response: ~1000 nM

----------
- experimental.system: FGFR4 (h) (Homo sapiens)
- assay: FGFR4 (enzymatic assay), TR-FRET
- Assay type: biochemical
- condition.notes: 5 μM ATP; read-out: FGFR4 pIC50 (converted)
// values below are reported IC50

Below, each entry is followed by its recorded IC50 result.
| molecule | experimental.system | IC50 |
| --- | --- | --- |
| COc1cc(OC)cc(C(CC(=O)NC(C)C)c2ccc3ncc(-c4cnn(C)c4)nc3c2)c1 (stereo not drawn) [Compound 23] | FGFR4 (h) (Homo sapiens) | > 1 µM |
| COc1cc(OC)cc(/C(=C/CN(C)C)c2ccc3ncc(-c4cnn(C)c4)nc3c2)c1 [Compound 34] | FGFR4 (h) (Homo sapiens) | > 1 µM |
| COc1cc(OC)cc(C(=O)c2ccc3ncc(-c4cnn(C)c4)nc3c2)c1 [Compound 2] | FGFR4 (h) (Homo sapiens) | ~10 µM |
| COc1cc(OC)cc(/C(=C/C#N)c2ccc3ncc(-c4cnn(C)c4)nc3c2)c1 [Compound 3] | FGFR4 (h) (Homo sapiens) | > 10 µM |
| COc1cc(OC)cc(C(CCNCC(F)(F)F)c2ccc3ncc(-c4cnn(C)c4)nc3c2)c1.Cl (stereo not drawn) [Compound 33] | FGFR4 (h) (Homo sapiens) | ~1 µM |

Pending molecule:
Query: # get_value(readout='IC50', item= COc1cc(OC)cc(C(CCCN)c2ccc3ncc(-c4cnn(C)c4)nc3c2)c1.Cl (stereo not drawn) [Compound 40] )
Response: > 1 µM

----------
reported.metric: melting point (°C)

| molecule | reported.metric | recorded.value |
| --- | --- | --- |
| COc1cc(OC)cc(C(CCNCC(F)(F)F)c2ccc3ncc(-c4cnn(C)c4)nc3c2)c1.Cl (stereo not drawn) | melting point | 162 |
| CNCC(O)(c1cc(OC)cc(OC)c1)c1ccc2ncc(-c3cnn(C)c3)nc2c1.Cl (single isomer, unassigned) [Compound 37] | melting point | 174 |
| COc1cc(OC)cc(/C(=C\CNC(C)C)c2ccc3ncc(-c4cnn(C)c4)nc3c2)c1 | melting point | 164 |
| COc1cc(OC)cc(/C(=C/CN(C)C)c2ccc3ncc(-c4cnn(C)c4)nc3c2)c1 | melting point | 177 |
| COc1cc(OC)cc(C(CCNC(C)C)c2ccc3ncc(-c4cnn(C)c4)nc3c2)c1.Cl (stereo not drawn) | melting point | 148 |
| COc1cc(OC)cc(C(=O)c2ccc3ncc(-c4cnn(C)c4)nc3c2)c1 | melting point | 162 |
| COc1cc(OC)cc(/C(=C\C#N)c2ccc3ncc(-c4cnn(C)c4)nc3c2)c1 | melting point | 204 |
| COc1cc(OC)cc(C2(c3ccc4ncc(-c5cnn(C)c5)nc4c3)CC2)c1 | melting point | 140 |
| COc1cc(OC)cc(/C(=C\CN(C)C)c2ccc3ncc(-c4cnn(C)c4)nc3c2)c1 | melting point | 164 |
| CNCC(O)(c1cc(OC)cc(OC)c1)c1ccc2ncc(-c3cnn(C)c3)nc2c1.Cl (single isomer, unassigned) [Compound 38] | melting point | 169 |
| COc1cc(OC)cc(C(CCO)c2ccc3ncc(-c4cnn(C)c4)nc3c2)c1 (stereo not drawn) | melting point | 114 |
| COc1cc(OC)cc(C(CC(C)=O)c2ccc3ncc(-c4cnn(C)c4)nc3c2)c1 (stereo not drawn) | melting point | 154 |
